B1: Caulobacter ParB omega fusion; a variant is named by its letters at X, in order, B8GW30 (parent)
chain: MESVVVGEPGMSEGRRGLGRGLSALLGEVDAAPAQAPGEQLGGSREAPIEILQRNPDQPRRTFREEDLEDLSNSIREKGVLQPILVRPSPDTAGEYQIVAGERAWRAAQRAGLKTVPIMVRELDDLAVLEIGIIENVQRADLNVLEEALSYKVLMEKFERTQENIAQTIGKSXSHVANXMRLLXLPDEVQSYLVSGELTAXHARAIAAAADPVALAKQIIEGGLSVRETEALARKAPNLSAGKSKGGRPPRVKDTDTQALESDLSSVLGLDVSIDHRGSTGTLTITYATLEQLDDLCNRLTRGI

- Variants of: B1
- procedure details: one-hybrid fitness for binding NBS DNA (the Noc-binding site; scaled: cognate 1, non-cognate 0); higher = stronger binding
- run parameters: with NBS DNA site
Whole data set: some 81,000 sequences, median “one-hybrid fitness for binding NBS DNA” near -0.1, cut for the highest 2% near 0.36. The entries come from a sample that favours the highest values as a whole.
endpoint name: one-hybrid fitness for binding NBS DNA

**Q:** Given the entry KRYA , report its measured one-hybrid fitness for binding NBS DNA.
**A:** 0.313

**Q:** Given the entry KRNA , report its measured one-hybrid fitness for binding NBS DNA.
**A:** 0.384

**Q:** Given the entry KGQY , report its measured one-hybrid fitness for binding NBS DNA.
**A:** ≤ 0.2

**Q:** Given the entry SWRY , report its measured one-hybrid fitness for binding NBS DNA.
**A:** ≤ 0.2

**Q:** Given the entry ELQY , report its measured one-hybrid fitness for binding NBS DNA.
**A:** ≤ 0.2

**Q:** Given the entry IRFR , report its measured one-hybrid fitness for binding NBS DNA.
**A:** ≤ 0.2

**Q:** Given the entry GCLR , report its measured one-hybrid fitness for binding NBS DNA.
**A:** ≤ 0.2

**Q:** Given the entry QTGH , report its measured one-hybrid fitness for binding NBS DNA.
**A:** 0.424

**Q:** Given the entry NQER , report its measured one-hybrid fitness for binding NBS DNA.
**A:** ≤ 0.2

**Q:** Given the entry KRKA , report its measured one-hybrid fitness for binding NBS DNA.
**A:** 0.552

**Q:** Given the entry GVRI , report its measured one-hybrid fitness for binding NBS DNA.
**A:** ≤ 0.2

**Q:** Given the entry QTGS , report its measured one-hybrid fitness for binding NBS DNA.
**A:** 0.557

**Q:** Given the entry QCKP , report its measured one-hybrid fitness for binding NBS DNA.
**A:** 0.332

**Q:** Given the entry QTVP , report its measured one-hybrid fitness for binding NBS DNA.
**A:** ≤ 0.2

**Q:** Given the entry MKNR , report its measured one-hybrid fitness for binding NBS DNA.
**A:** ≤ 0.2

**Q:** Given the entry TLGI , report its measured one-hybrid fitness for binding NBS DNA.
**A:** ≤ 0.2

**Q:** Given the entry GAEY , report its measured one-hybrid fitness for binding NBS DNA.
**A:** ≤ 0.2

**Q:** Given the entry LDDR , report its measured one-hybrid fitness for binding NBS DNA.
**A:** ≤ 0.2

**Q:** Given the entry SMQN , report its measured one-hybrid fitness for binding NBS DNA.
**A:** ≤ 0.2

**Q:** Given the entry ATVR , report its measured one-hybrid fitness for binding NBS DNA.
**A:** ≤ 0.2

**Q:** Given the entry RRPE , report its measured one-hybrid fitness for binding NBS DNA.
**A:** ≤ 0.2

**Q:** Given the entry HLCR , report its measured one-hybrid fitness for binding NBS DNA.
**A:** ≤ 0.2

**Q:** Given the entry QTGP , report its measured one-hybrid fitness for binding NBS DNA.
**A:** ≤ 0.2

**Q:** Given the entry CDAR , report its measured one-hybrid fitness for binding NBS DNA.
**A:** ≤ 0.2

**Q:** Given the entry KPSG , report its measured one-hybrid fitness for binding NBS DNA.
**A:** ≤ 0.2

**Q:** Given the entry KCNA , report its measured one-hybrid fitness for binding NBS DNA.
**A:** ≤ 0.2

**Q:** Given the entry QTVN , report its measured one-hybrid fitness for binding NBS DNA.
**A:** ≤ 0.2

**Q:** Given the entry QTKN , report its measured one-hybrid fitness for binding NBS DNA.
**A:** 0.56

**Q:** Given the entry KTKA , report its measured one-hybrid fitness for binding NBS DNA.
**A:** ≤ 0.2

**Q:** Given the entry MLMV , report its measured one-hybrid fitness for binding NBS DNA.
**A:** ≤ 0.2

**Q:** Given the entry NQVL , report its measured one-hybrid fitness for binding NBS DNA.
**A:** ≤ 0.2

**Q:** Given the entry KCKA , report its measured one-hybrid fitness for binding NBS DNA.
**A:** ≤ 0.2
